molecular target: T7 RNA polymerase (Escherichia phage T7, UniProt P00573); assay: In vitro transcription yields of modified mRNA; format: biochemical; settings: Luciferase mRNA made with the modified NTP(s)
Sequence (P00573 whole entry): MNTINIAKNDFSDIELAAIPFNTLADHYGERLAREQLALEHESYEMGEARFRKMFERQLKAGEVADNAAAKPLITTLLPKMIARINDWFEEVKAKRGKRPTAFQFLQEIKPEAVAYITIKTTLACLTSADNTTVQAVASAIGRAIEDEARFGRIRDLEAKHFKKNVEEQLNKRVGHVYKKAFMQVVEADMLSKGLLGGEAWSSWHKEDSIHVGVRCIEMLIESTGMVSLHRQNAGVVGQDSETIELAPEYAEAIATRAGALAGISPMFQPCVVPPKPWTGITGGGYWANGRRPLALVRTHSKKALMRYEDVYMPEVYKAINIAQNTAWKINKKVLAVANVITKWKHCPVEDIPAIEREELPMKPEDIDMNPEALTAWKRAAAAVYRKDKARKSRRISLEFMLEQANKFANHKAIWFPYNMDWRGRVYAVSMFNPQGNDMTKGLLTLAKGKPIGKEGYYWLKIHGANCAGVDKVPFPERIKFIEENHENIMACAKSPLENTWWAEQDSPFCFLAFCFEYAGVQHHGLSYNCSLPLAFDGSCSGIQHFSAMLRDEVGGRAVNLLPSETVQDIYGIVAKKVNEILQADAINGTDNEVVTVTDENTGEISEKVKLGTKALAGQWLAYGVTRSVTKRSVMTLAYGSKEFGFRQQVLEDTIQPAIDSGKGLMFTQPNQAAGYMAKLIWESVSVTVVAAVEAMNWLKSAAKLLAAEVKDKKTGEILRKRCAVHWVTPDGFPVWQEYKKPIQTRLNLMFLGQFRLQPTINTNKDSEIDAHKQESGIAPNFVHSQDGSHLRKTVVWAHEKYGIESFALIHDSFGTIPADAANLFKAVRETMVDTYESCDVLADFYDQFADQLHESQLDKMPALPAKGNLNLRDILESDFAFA
Assay Readout: Luc In Vitro Transcription yield (mg)
Reply with just the number (in mg).

**Q:** Query (compound): O=c1ccn([C@@H]2O[C@H](COP(O)(=S)OP(=O)(O)OP(=O)(O)O)C(O)C2O)c(=O)[nH]1 (stereo in doubt) [Compound 00902013001, Alpha-thio-UTP] ; field requested: Luc In Vitro Transcription yield
**A:** 0.3510

====

Molecular target: T7 RNA polymerase (Escherichia phage T7, UniProt P00573)
Assay: In vitro transcription yields of modified mRNA
Format: biochemical
Details: EPO mRNA made with the modified NTP(s)
Method: The in vitro transcription reaction generates mRNA containing modified nucleotides or modified RNA. The input nucleotide triphosphate (NTP) mix is made in-house using natural and unnatural NTPs. […] The crude IVT mix may be stored at 4° C. overnight for cleanup the next day. […] Following the cleanup, the RNA is quantified using the NanoDrop and analyzed by agarose gel electrophoresis to confirm the RNA is the proper size and that no degradation of the RNA has occurred. […]
Below, each entry is listed alongside its reported EPO In Vitro Transcription yield.
Reply with just the number (in mg).

Examples with their reported EPO In Vitro Transcription yield follow.
**Q:** API: value(readout=EPO In Vitro Transcription yield, system=T7 RNA polymerase (Escherichia phage T7, UniProt P00573)) for record Cn1cc([C@@H]2O[C@H](COP(O)(=S)OP(=O)(O)OP(=O)(O)O)C(O)C2O)c(=O)[nH]c1=O (stereo in doubt)
**A:** 0.7679

**Q:** What would you report for O=c1[nH]c(=S)[nH]cc1[C@@H]1O[C@H](COP(=O)(O)OP(=O)(O)OP(=O)(O)O)C(O)C1O (stereo in doubt) ?
**A:** 1.081

**Q:** What would you report for CNc1ccn([C@@H]2O[C@H](COP(=O)(O)OP(=O)(O)OP(=O)(O)O)C(O)C2O)c(=O)n1 (stereo in doubt) ?
**A:** 1.154

**Q:** What would you report for O=c1[nH]cc([C@@H]2O[C@H](COP(O)(=S)OP(=O)(O)OP(=O)(O)O)C(O)C2O)c(=O)[nH]1 (stereo in doubt) ?
**A:** 0.8632

**Q:** What would you report for O=c1ccn([C@@H]2O[C@H](COP(O)(=S)OP(=O)(O)OP(=O)(O)O)C(O)C2O)c(=O)[nH]1 (stereo in doubt) ?
**A:** 0.2666

Next:
**Q:** API: value(readout=EPO In Vitro Transcription yield, system=T7 RNA polymerase (Escherichia phage T7, UniProt P00573)) for record Cn1c(N)nc2c(ncn2[C@@H]2O[C@H](COP(=O)(O)OP(=O)(O)OP(=O)(O)O)C(O)C2O)c1=O (some centres unmarked)
**A:** 0.0032

**Q:** What would you report for COc1cn([C@@H]2O[C@H](COP(=O)(O)OP(=O)(O)OP(=O)(O)O)C(O)C2O)c(=O)[nH]c1=O (stereo in doubt) ?
**A:** 0.1727

**Q:** What would you report for O=c1[nH]c(=O)n([C@@H]2O[C@H](COP(=O)(O)OP(=O)(O)OP(=O)(O)O)C(O)C2O)cc1Br (stereo in doubt) ?
**A:** 0.2617

These entries and their values trace back to patent US20160304552A1.
